Reported protein stability index is given for each of the following variants.
B1: KLHDC10 (parent)
chain: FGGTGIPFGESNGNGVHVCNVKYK

- Variants of: B1
- Experiment: protein stability index of a GFP-peptide fusion (GPS, HEK-293T) (PSI 1-6); higher = more stable;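 note: lentivirally expressed fusions sorted by FACS into six bins by GFP to DsRed ratio, PSI derived from sequencing read proportions per bin multiplied by bin number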
- Assay Context: c terminus: a fixed tail appended

[[record]]
residue_sequence = "FGGTGIPFGESNGNGMHVCNVKYK [V16M]"
value = 1.89

[[record]]
residue_sequence = "FGGTCIPFGESNGNGVHVCNVKYK [G5C]"
value = 1.71

[[record]]
residue_sequence = "FGNTGIPFGESNGNGVHVCNVKYK [G3N]"
value = 2.35


Asked: Input FGRTGIPFGESNGNGVHVCNVKYK [G3R] , output reported protein stability index.
Given back: 2.77

Asked: # return recorded protein stability index for entry FGGTVIPFGESNGNGVHVCNVKYK [G5V]
Given back: 1.9

Asked: Please list protein stability index recorded for the variant FGGTIIPFGESNGNGVHVCNVKYK [G5I]
Given back: 3.13

Data credit: the supplement of paper PMC10567573
